- protocol: Metabolic stability in human liver microsomes assessed as compound remaining at 1 uM incubated for 60 mins by UPLC-MS/MS analysis
- Format: ADME, Microsome
- condition.info: read-out: Stability
measured.endpoint: remaining at 1 h, 1 µM (%)
All answers are understood in %, so give the number only.

COC(=O)N[C@H](C(=O)N1CCC[C@H]1C(=O)Nc1ccc([C@@H]2CC[C@@H](c3ccc(NC(=O)[C@@H]4CCCN4C(=O)[C@@H](NC(=O)OC)C(C)C)cc3)N2c2ccc(C(C)(C)C)cc2)cc1)C(C)C [OMBITASVIR] :: 82.5

If you can, please state the reported remaining at 1 h, 1 µM value of COC(=O)N[C@H](C(=O)N1CCC[C@H]1C(=O)Nc1ccc([C@@H]2CC[C@@H](c3ccc(NC(=O)[C@@H]4CCCN4C(=O)[C@@H](NC(=O)OC)[C@@H](C)OC)cc3)N2c2cc(F)c(N3CC[Si](C)(C)CC3)c(F)c2)cc1)[C@@H](C)OC .
80.9
